Entry source: patent US20250154277A1

For each entry below, report its EC50 value.
Molecular target: T1, cynomolgus 5T4 protein (cynomolgus monkey, UniProt Q4R8Y9 35-355, limits assumed)
T1 construct: Coated protein in ELISA; the screening step names a cyno 5T4-His protein; also called cyno 5T4; recombinant cyno 5T4-His protein
T1 sequence (looked up): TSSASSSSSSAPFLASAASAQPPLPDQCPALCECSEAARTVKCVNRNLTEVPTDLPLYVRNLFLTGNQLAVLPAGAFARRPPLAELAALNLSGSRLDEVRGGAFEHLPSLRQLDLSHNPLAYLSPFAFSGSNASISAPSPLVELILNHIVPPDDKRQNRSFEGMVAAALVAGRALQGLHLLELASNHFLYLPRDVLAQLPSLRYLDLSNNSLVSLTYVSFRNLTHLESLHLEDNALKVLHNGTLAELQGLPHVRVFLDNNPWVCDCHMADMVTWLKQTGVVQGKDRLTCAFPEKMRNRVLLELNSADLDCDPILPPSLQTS
Assay: ELISA, coated antigen

Binder	EC50
113H5 chimeric antibody (antibody, V domains shown, chimeric mAb) VH: DVQLQESGPGLVKPSQSLSLTCSVTGYSITSGYYWNWIRQFPGNKLEWMGYINSDGSNNYNPSLKNRISITRDTSKNQFFLKLNSVTTEDTATYYCAREEYDYWFAYWGQGTLVTVSA VL: DIVMTQSQKFMSTSVGDRVSVTCKASQNVGTNVAWYQQKPGQSPKALIYSASNRYSGVPDRFTGSGFGTDFTLTISNVQSEDLTEYFCQQYNSYPYTFGGGTNLEIK	0.82 nM

Please give EC50, item by item, for the list that follows.
1. 14G12 chimeric antibody (antibody, V domains shown, chimeric mAb) VH: EVQLQQSGPELVKPGASVKISCKASGYAFSSSWMNWVKQRPGKGLEWIGRIYREDGHTNYNGKFKGKATLTADKSSTTAYMQLTSLTSEDSAVYFCANGGAMDYWGQGTSVTVSS VL: DIQMTQSTSSLSASLGDRVTISCRASQDISNYLNWYQQKPDGTVKLLIYYTSRLHSGVPSRFSGSGSGTDYSLTISNLEQEDIATYFCQQDNTLPWTFGGGTKLEIK
2. 85B10 chimeric antibody (antibody, V domains shown, chimeric mAb) VH: QVQLQQSGPELVKPGASVKISCKASGYTFTAYYVNWVKQSHGKSLEWIGDINPNNGGTNYNQKFKGKATLTVDMSSSTAYMELRSLTSEDSAVYYCAKEGPPGAMDYWGQGTSVTVSS VL: SIVLTQTPKFLLVSAGDRVPITCKASQSVSNNVAWYQQKPGQSPKLLIYYASNPYTGVPDRFTGSGYGTDFTFTITTVQAEDLAVYFCQQVYSSPFTFGGGTKLEMK

1: 0.17 nM; 2: 0.17 nM

Indicate the recorded EC50 value for this binder: 493E10 chimeric antibody (antibody, V domains shown, chimeric mAb) VH: DVQLVESGGGLVQPGGSRKLSCAASGFTFSSFGMHWVRQAPEKGLEWVAYISSGSSTIYYADTVKGRFTISRDNPKNTLFLQMTSLRSEDTAMYYCARNRAYHREAMDYWGQGTSVTVSS VL: DIVLTQSPASLTVSLGQRATISCRASQSVSSSSYNYMHWYQQKPGQPPKLLIKSASNLESGVPARFSGSGSGTDFTLNIHPVEEEDTATYYCQHSWEIPYTFGGGTKLEIK
0.25 nM
